// data source = PubChem BioAssay (Tox21)

- EXPERIMENTAL PROTOCOL: qHTS assay for identifying genotoxic compounds that show differential cytotoxicity against isogenic chicken DT40 cell lines with known DNA damage response pathways - wild type cell line (AID 743012); note: nearly all actives have a fitted effect of over 60% in size
- APPLIED CONDITIONS: DT40 wild type chicken cells viability, CellTiter-Glo, 40 h; series mostly up to 68.4 µM
Records with an inconclusive call do not appear. Calls of active or inactive are those of the source. Calls come from the whole dose curve; as a rule, active = well fitted cell-killing curve with a large enough effect in the repeat runs; inconclusive = weak or mixed curves, or effect the other way; inactive = no such curve, though single readings can be large or run the other way.
Outcome codes: 1 (yes) = active, 0 (no) = inactive

1) CC(=O)OCC(C)OC(C)=O (stereo not drawn)    0 (no)
2) CCCCCCCCCCCCCCCC[N+](C)(C)CCN(Cc1ccc(OC)cc1)c1ncccn1    1 (yes)
3) Cc1onc(-c2c(Cl)cccc2Cl)c1C(=O)N[C@@H]1C(=O)N2[C@@H]1SC(C)(C)[C@@H]2C(=O)O    0 (no)

* * *

- EXPERIMENTAL PROTOCOL: Caspase-3/7 induction in CHO-K1 cells by small molecules, qHTS cell viability counter screen (AID 1346979); note: nearly all actives have a fitted effect of over 35% in size
- APPLIED CONDITIONS: CellTiter-Fluor fluorescence, 17 h; series mostly up to 92.4 µM
Records with an inconclusive call do not appear. Active and inactive are the calls of the source. Calls come from the whole dose curve; as a rule, active = well fitted cell-killing curve with a large enough effect in the repeat runs; inconclusive = weak or mixed curves, or effect the other way; inactive = no such curve, though single readings can be large or run the other way.
Outcome codes: active, inactive

1) CCCCCCCCCCn1cc[n+](CCCCCCCCCC)c1C    active
2) CCCCCCCC(=O)[O-].CCCCCCCC(=O)[O-].[Zn+2]    inactive
3) CC(=O)OCC(C)OC(C)=O (stereo not drawn)    inactive
4) OC1(c2ccc(Cl)c(C(F)(F)F)c2)CCN(CCCC(c2ccc(F)cc2)c2ccc(F)cc2)CC1    active
5) Nc1ccc(N)c2ccccc12    active
6) O=C(NOCC1CC1)c1ccc(F)c(F)c1Nc1ccc(I)cc1Cl    active
7) C=C(C)C(=O)OCC[N+](C)(C)C    active
8) CC(C)(C)C1CCC(CC2=C(O)c3ccccc3C(=O)C2=O)CC1 (stereo not drawn)    active
9) COc1cc(-c2nc(NC(=O)c3cc4cc(C)cc(C)c4n3CC(=O)O)sc2CCC2CCCCC2)c(OC)cc1Cl    active
10) CCOC(=O)O[C@H](C)OC(=O)c1ccc2c(c1)cc(C(=O)NC1CCN(C(C)C)CC1)n2Cc1cc(-c2ccc(Cl)s2)on1    active
11) Oc1ccc(N=Nc2ccccc2)cc1    active
12) Cc1nc(-c2ccc3c(c2)CCN(CCC2CCC(NC(=O)/C=C/c4ccc(F)cc4)CC2)CC3)no1 (stereo not drawn)    active
13) Oc1c(Cl)cc(Cl)c2cccnc12    active
14) CCN(Cc1cccnc1)C(=O)c1cccc(Cl)c1[C@]1(C)C(=O)N(Cc2ccc(OC)cc2OC)c2ccc(Cl)cc21    active
15) CCCN(CCC)C(=O)C(CCC(=O)OCCCN1CCN(CCOC(=O)Cc2c(C)n(C(=O)c3ccc(Cl)cc3)c3ccc(OC)cc23)CC1)NC(=O)c1ccccc1 (stereo not drawn)    active
16) O=C(Nc1cccc([N+](=O)[O-])c1)c1cc2ccccc2cc1O    active
17) CCCCCCCCCCCCCC[P+](CCCC)(CCCC)CCCC (tested in a mixture with another compound)    active
18) OCc1c[nH]c2ccccc12    active
19) O=C(O)c1c(Cl)cccc1Cl    inactive
20) CC(C)(C)NC(=O)[C@@H]1C[C@@H]2CCCC[C@@H]2CN1C[C@@H](O)[C@H](Cc1ccccc1)NC(=O)[C@H](CC(N)=O)NC(=O)c1ccc2ccccc2n1    active
21) Cc1cc(C2CCCCC2)n(O)c(=O)c1    active
22) Cc1[nH]nc2c1N=C(c1ccccc1Cl)c1cc([N+](=O)[O-])ccc1N2    active
23) CCCCc1oc2ccc(NS(C)(=O)=O)cc2c1C(=O)c1ccc(OCCCN(CCCC)CCCC)cc1    active
24) CCCCCCCCCCCCCCCCCC[N+](C)(C)C    active
25) COc1cc(/C=C/C(=O)O[C@H]2CC[C@]34C[C@]35CC[C@]3(C)[C@@H]([C@H](C)CCC=C(C)C)CC[C@@]3(C)[C@@H]5CC[C@H]4C2(C)C)ccc1O    inactive
26) O=C(Nc1ccc(Oc2ccc(Cl)cc2)c(Cl)c1)c1cc(I)cc(I)c1O    inactive
27) Clc1ccc2cc3ccccc3cc2c1    inactive
28) CCCCCCCC/C=C\CCCCCCCCOCCO    active

* * *

- EXPERIMENTAL PROTOCOL: qHTS assay to identify small molecule antagonists of the progesterone receptor (PR) signaling pathway - cell viability counter screen (AID 1346798); note: nearly all actives have a fitted effect of over 50% in size
- APPLIED CONDITIONS: PR-UAS-bla HEK293T viability, CellTiter-Glo luminescence, 16 h; series mostly up to 92.4 µM
Inconclusive results are not listed. Active and inactive are the calls of the source. The call rests on the fitted dose curve; in most records, active means well fitted cell-killing curve with a large enough effect in the repeat runs; inconclusive means weak or mixed curves, or effect the other way; inactive means no such curve, though single readings can be large or run the other way.
Outcome codes: active, inactive

1) CN(C)CCCOC1(Cc2ccccc2)CCCCCC1    inactive
2) CCOC(=O)O[C@]1(C(=O)OCCl)CC[C@H]2[C@@H]3CCC4=CC(=O)C=C[C@]4(C)[C@H]3[C@@H](O)C[C@@]21C    inactive
3) CCOc1nc2cccc(C(=O)OC(C)OC(=O)OC3CCCCC3)c2n1Cc1ccc(-c2ccccc2-c2nn[nH]n2)cc1 (stereo not given)    active
4) COc1ccc(CN2CCN(C(c3ccc(F)cc3)c3ccc(F)cc3)CC2)c(OC)c1OC    active
5) COc1cc(/C=C/C(=O)O[C@H]2CC[C@]34C[C@]35CC[C@]3(C)[C@@H]([C@H](C)CCC=C(C)C)CC[C@@]3(C)[C@@H]5CC[C@H]4C2(C)C)ccc1O    inactive
6) Cc1cc(N)c(S(=O)(=O)O)cc1Cl    inactive
7) CN1CCC(Nc2ncc3ncnc(Nc4ccc(F)c(Cl)c4)c3n2)CC1    active
8) CCCCN(CCCC)C(=O)N(CCCC)CCCC    inactive
9) Cc1cccc2c1cc1ccc3cccc4ccc2c1c34    inactive
10) N=C1N=C(N)c2ccccc21    inactive

* * *

- EXPERIMENTAL PROTOCOL: qHTS assay to identify small molecule agonists of the constitutive androstane receptor (CAR) signaling pathway - cell viability counter screen (AID 1224836); note: nearly all actives have a fitted effect of over 45% in size
- APPLIED CONDITIONS: HepG2-CYP2B6-hCAR viability, CellTiter-Fluor, 23 h, PK11195 added to every well; series mostly up to 92.4 µM
Records with an inconclusive call do not appear. Active and inactive are the calls of the source. Calls follow the shape of the dose curve; as a rule, active = well fitted cell-killing curve with a large enough effect in the repeat runs; inconclusive = weak or mixed curves, or effect the other way; inactive = flat fitted curve, though single readings scatter.
Outcome codes: True (active), False (inactive)

1. CC(C)=CCOc1ccc(/C=C/C(=O)c2ccc(OCC=C(C)C)cc2OCC(=O)O)cc1    False
2. COc1cc(/C=C/C(=O)O[C@H]2CC[C@]34C[C@]35CC[C@]3(C)[C@@H]([C@H](C)CCC=C(C)C)CC[C@@]3(C)[C@@H]5CC[C@H]4C2(C)C)ccc1O    False
3. CCc1oc2ccccc2c1C(=O)c1cc(Br)c(O)c(Br)c1    False
4. [Cl][Au]([Cl])[Cl]    True
5. O=C(c1ccc(F)cc1)C1CCN(CCn2c(=O)[nH]c3ccccc3c2=O)CC1    False
6. CCC(CN)=C(c1ccccc1)c1ccccc1    False
7. O=C(Nc1ccc(Oc2ccc(Cl)cc2)c(Cl)c1)c1cc(I)cc(I)c1O    False
8. CC(=O)N1CCN(c2ccc(OC[C@H]3CO[C@](Cn4ccnc4)(c4ccc(Cl)cc4Cl)O3)cc2)CC1    True
9. Fc1ccc(C(c2ccc(F)cc2)N2CCN(C/C=C/c3ccccc3)CC2)cc1    False
10. NNc1nc(-c2ccccc2)cs1    False
11. C=CC(=O)OCC(CO)(COCC(COC(=O)C=C)(COC(=O)C=C)COC(=O)C=C)COC(=O)C=C    True
12. C/C(=C(/OCCOc1ccc(Cl)cc1)c1ccc(Cl)cc1Cl)n1ccnc1    False

* * *

- EXPERIMENTAL PROTOCOL: qHTS assay to identify small molecule agonists of the estrogen receptor alpha (ER-alpha) signaling pathway in the presence of an antagonist - cell viability counter screen (AID 1259386);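 note: cells exposed to compounds for 22 h at 37 °C before the viability read; nearly all actives have a fitted effect of over 30% in size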
- APPLIED CONDITIONS: VM7Luc4E2 viability, CellTiter-Fluor fluorescence, 22 h; series mostly up to 92.4 µM
Results filed as inconclusive are left out. Calls of active or inactive are those of the source. Calls follow the shape of the dose curve; as a rule, active = well fitted cell-killing curve with a large enough effect in the repeat runs; inconclusive = weak or mixed curves, or effect the other way; inactive = no such curve, though single readings can be large or run the other way.
Outcome codes: 1 for active, 0 for inactive

1. CN1CCN(CCC(=O)N2c3ccccc3Sc3ccc(C(F)(F)F)cc32)CC1    0
2. O=c1[nH]sc2cc(Cl)ccc12    0
3. Cc1cc(N)c(S(=O)(=O)O)cc1Cl    0
4. N=C1N=C(N)c2ccccc21    0
5. C[C@@H]1C[C@H]2[C@@H]3CCC4=CC(=O)C=C[C@]4(C)[C@@]3(Cl)[C@@H](O)C[C@]2(C)[C@@]1(OC(=O)c1ccco1)C(=O)CCl    0
6. CNc1ccc(O)cc1    1
7. CN(C)[C@@H]1C(=O)C(C(N)=O)=C(O)[C@@]2(O)C(=O)C3=C(O)c4c(O)cccc4C[C@H]3C[C@@H]12    0
8. Cc1[nH]nc2c1N=C(c1ccccc1Cl)c1cc([N+](=O)[O-])ccc1N2    1
9. COc1cc(-c2nc(NC(=O)c3cc4cc(C)cc(C)c4n3CC(=O)O)sc2CCC2CCCCC2)c(OC)cc1Cl    0
10. O=C(Nc1cccc(Cl)c1)OCC#CCCl    1
11. CC(C)(C)C(=O)OCOC(=O)C1N2C(=O)CC2S(=O)(=O)C1(C)C (configuration not stated)    0
12. O=C(OCC(COC(=O)c1ccccc1)(COC(=O)c1ccccc1)COC(=O)c1ccccc1)c1ccccc1    0
13. CC1(C)CCC(C)(C)c2cc(C(=O)Nc3ccc(C(=O)O)cc3)ccc21    0
14. CCCC(C)c1ccccc1O (configuration not stated)    0
15. NC(=NCCCCCCN=C(N)/N=C(\N)Nc1ccc(Cl)cc1)/N=C(\N)Nc1ccc(Cl)cc1    0
16. Oc1ccc(N=Nc2ccccc2)cc1    1
17. Cc1ccc(O)c2ncccc12    0
